assay method text: Viability (MTS) of 293T cells
Type: cell-based, human
measurement setup: human, 293T cell viability, MTS absorbance 490 as percent of untreated control, single replicate well, 0.037037 uM, replicate well, normalised to own plate
measured parameter: viability at 72 h, 0.037037 µM (%)
Answer in %, number only, no unit symbol.

Kindly note the recorded viability at 72 h, 0.037037 µM for Cc1ncsc1-c1ccc([C@H](C)NC(=O)[C@@H]2C[C@@H](O)CN2C(=O)[C@@H](NC(=O)CCCCCC(=O)N2CCN(CC[C@H](CSc3ccccc3)Nc3ccc(S(=O)(=O)NC(=O)c4ccc(N5CCN(CC6=C(c7ccc(Cl)cc7)CCC(C)(C)C6)CC5)cc4)cc3S(=O)(=O)C(F)(F)F)CC2)C(C)(C)C)cc1 [DT2216] , which is 105
